Entry source: the METLIN SMRT retention time set (Domingo-Almenara et al. 2019)

assay_info: gradient 5% acetonitrile 3 min, to 50% in 2 min, to 85% in 15 min, held 3 min, 100 µL/min
applied_conditions: column: Zorbax Extend-C18 2.1 x 50 mm; eluents: water / acetonitrile, 0.1% formic acid
property_name: RP-LC retention time (s)
Numbers only, in s.

Reference set (5 entries):
Cn1nc(N2CCCC(NS(=O)(=O)c3cccc4cccnc34)C2)ccc1=O (centres undefined)    698
COCC1CN(C2CCC2)CC12CCN(C(=O)c1cccs1)CC2 (centres undefined)    602
O=C(Nc1cc(-c2ccccn2)no1)c1cccc(Br)c1    894
O=C(CCn1nnc2cc(-c3noc(-c4ccc(Cl)cc4)n3)ccc21)N1CCCC1    1010
Cc1cc(N2CCN(c3ccccn3)CC2)n2nc(-c3ccccc3)c(C)c2n1    614

List RP-LC retention time for every entry below, keeping the order given.
1. Cc1cc(C)c(C(=O)N2CCCC(C(=O)N3CCN(c4cccc(Cl)c4)CC3)C2)[nH]1 (centres undefined)
2. CCC(C)Cn1c(CNC(=O)c2ccco2)nc2ccccc21 (centres undefined)
3. O=C(NCc1ccccc1)c1c(O)c2cccnc2n(-c2cccc(F)c2)c1=O
4. Cc1cccc(CNC(=O)Cn2nc(C(=O)N3CCCC3)c3ccccc32)c1

Reply:
953
664
1160
828
